Test system: Plasmodium berghei
Test Protocol: Screen against P. berghei liver stage (PbLuc), transformed with Luciferase, at 10uM
Format: functional, HepG2
Experimental Conditions: tested at 10 uM
Screen size: about 69,000 compounds; about 8,600 (12%) showed an effect of 50% or more. The sample as a whole holds a higher share of strong results than the screen did.
Entries annotated with measured INHIBITION
A number alone suffices; assume %.

Documented INHIBITION of "COc1ccc([C@@H]2CN(Cc3ccncc3)C[C@H]2N(C)C)cc1" : 33

Documented INHIBITION of "CCCN1CCc2[nH]cnc2C12CCN(C(=O)CCn1cccn1)CC2" : 54.8

Documented INHIBITION of "CC(=O)N1CCc2[nH]cnc2C12CCN(C(=O)Cc1ccccn1)CC2" : 8.31

Documented INHIBITION of "Cn1cc(CN2C[C@@H]3CN(C(=O)c4cccn4C)CCO[C@@H]3C2)cn1" : 24.9

* * *

System: Plasmodium berghei
Test Protocol: Screen against P. berghei liver stage (PbLuc), transformed with Luciferase, at 10uM
Type: functional, HepG2
Experimental Conditions: tested at 10 uM
About 8,600 (12%) of roughly 69,000 compounds showed an effect of 50% or more. Shown is part of a subset that was picked to be rich in strong results.
Reported Endpoint: INHIBITION (%)
A number alone suffices; assume %.

- Compound: "CCC1(C)Cc2ccccc2-c2nc(NCCCO)nc(O)c21 (stereo not given)"
  Quantitative Readout: 28.4

Observed INHIBITION, Plasmodium berghei, "COC(=O)c1cccc(NCC(=O)NC(N)=O)c1" : -5.92

Observed INHIBITION, Plasmodium berghei, "COc1ccc2c(C)c(C(=O)NC3CCN(S(C)(=O)=O)CC3)oc2c1" : -112

Observed INHIBITION, Plasmodium berghei, "Cc1sc2nc(CCN)nc(N3CCN(S(C)(=O)=O)CC3)c2c1C" : 67.5

Observed INHIBITION, Plasmodium berghei, CC(SCc1ccc(Br)c2cccnc12)C(N)=O (stereo not given) : 21.1

Observed INHIBITION, Plasmodium berghei, Cc1cccc(CN2CCCC3(Cc4ccccc4CNC3=O)C2)n1 (stereo not given) : 9.32

Observed INHIBITION, Plasmodium berghei, "Cc1cc(C(=O)N2CC[C@@H]3CN(c4ncccn4)CCO[C@@H]3C2)c(C)o1" : 33.5

Observed INHIBITION, Plasmodium berghei, O=C(CN1CCCC1Cn1cncn1)Nc1ccc(Cl)cn1 (stereo not given) : 80

Observed INHIBITION, Plasmodium berghei, COc1ccc2c(c1)C(C(=O)N(C)CCCc1nccn1C)CC(=O)N2 (stereo not given) : 23

Observed INHIBITION, Plasmodium berghei, "CC[C@@H](c1ccccc1)n1c(CCN)n[nH]c1=O" : 39

Observed INHIBITION, Plasmodium berghei, "CC1(c2nccs2)CCN(C(=O)CCN2CCOCC2)CC1" : 23.3

Observed INHIBITION, Plasmodium berghei, COCC(NC1CCN(CC(C)C)CC1)c1ccnn1C (stereo not given) : -1.49

Observed INHIBITION, Plasmodium berghei, "O=c1[nH]c(NCCO)nc2c1C1(CCCC1)Cc1ccccc1-2" : 62.3

Observed INHIBITION, Plasmodium berghei, "O=c1[nH]c(NCCCO)nc2c1C1(CCCC1)Cc1ccccc1-2" : 64

Observed INHIBITION, Plasmodium berghei, O=C(CN1CCCCC1Cn1cncn1)Nc1ccncc1 (stereo not given) : 23.2
